Measured EC50 of individual entries
System: phospho(Ser63)-c-jun in HK-2 cells
method_summary: Cell-Based Assay for JNK Inhibitors (in-cell ELISA, phospho(Ser63)-c-jun after TNFα)
experimental_context: HK-2 cells (human proximal tubule cells), 60 minutes compound, then 10 ng/mL TNFα for 30 minutes

{"columns": ["smiles_input", "measurement_units", "EC50"],
 "data": [
  ["COC(=O)c1c(CNC(=O)c2ccccc2)c(=O)c2ccccc2n1-c1ccccc1", "µM", 14],
  ["O=C(NCc1cn(-c2ccccc2)c2cc(Cl)ccc2c1=O)c1ccc(N2CCC(CO)CC2)nc1", "µM", 6.3],
  ["COC(=O)c1c(CNC(=O)c2cccnc2)c(=O)c2ccc(Cl)cc2n1-c1ccccc1", "µM", 9.8],
  ["COC(=O)c1c(CNC(=O)c2ccc(N3CCOCC3)nc2)c(=O)c2ccc(F)cc2n1-c1ccccc1", "µM", 2.4]
]}

---

System: phospho(Ser63)-c-jun in HK-2 cells
method_summary: Cell-Based Assay for JNK Inhibitors (in-cell ELISA, phospho(Ser63)-c-jun after TNFα)
experimental_context: HK-2 cells (human proximal tubule cells), 60 minutes compound, then 10 ng/mL TNFα for 30 minutes
Measured log10(EC50) of individual entries
measurement_type: log10(EC50) (log10 of the value in µM)

{"columns": ["compound", "result_value"],
 "data": [
  ["CN(CCO)c1ccc(C(=O)NCc2cn(-c3ccccc3)c3cc(Cl)ccc3c2=O)cn1 [Example I-66]", 1.46],
  ["COc1cc2ncnc(NCc3cn(-c4ccccc4)c4cc(Cl)ccc4c3=O)c2cc1OC [Example I-171]", 1.94],
  ["COC(=O)c1c(CNC(=O)c2ccccc2F)c(=O)c2ccc(Cl)cc2n1-c1ccccc1 [Example I-145]", 2.00],
  ["COC(=O)c1c(CNC(=O)c2ccc(-c3ccn[nH]3)cc2)c(=O)c2ccc(C(F)(F)F)nc2n1-c1ccccc1 [Example I-156]", 0.94],
  ["O=C(NCc1cn(-c2ccccc2)c2cc(Cl)ccc2c1=O)c1ccc(N2CCC(O)CC2)nc1 [Example I-76]", 1.68],
  ["COC(=O)c1c(CNC(=O)c2ccc(F)cc2)c(=O)c2ccc(Cl)cc2n1-c1ccccc1 [Example I-140]", 1.00],
  ["CN(C)C(=O)c1c(CNC(=O)c2ccc3ncsc3c2)c(=O)c2ccc(Cl)cc2n1-c1ccccc1 [Example I-16]", 1.54],
  ["CN1CCN(c2ncc(C(=O)NCc3cn(-c4ccccc4)c4cc(Cl)ccc4c3=O)s2)CC1 [Example I-95]", 1.34],
  ["COC(=O)c1c(CNC(=O)c2ccc(C(C)(C)C)cc2)c(=O)c2ccc(OC)cc2n1-c1ccccc1 [Example I-163]", 1.15],
  ["O=C(NCc1cn(-c2ccccc2)c2cc(Cl)ccc2c1=O)c1ccc(N2CCN(CCO)CC2)nc1 [Example I-83]", 1.08],
  ["CN(C)C1CCN(c2ccc(C(=O)NCc3cn(-c4ccccc4)c4cc(Cl)ccc4c3=O)cn2)CC1 [Example I-75]", 1.15],
  ["O=C(NCc1cn(-c2ccccc2)c2cc(Cl)ccc2c1=O)c1ccn(Cc2ccccc2Cl)c(=O)c1 [Example I-39]", 1.00],
  ["COC(=O)c1c(CNC(=O)c2ccc(-c3ncc[nH]3)cc2)c(=O)c2ccc(Cl)cc2n1-c1ccccc1 [Example I-114]", 0.61],
  ["O=C(NCc1cn(-c2ccccc2)c2cc(Cl)ccc2c1=O)c1ccc(N2CCOCC2)nc1 [Example I-40]", 2.00],
  ["COC(=O)c1ccc(C(=O)NCc2c(C(=O)OC)n(-c3ccccc3)c3cc(Cl)ccc3c2=O)cc1 [Example I-133]", 1.11]
]}
